Target: tumor necrosis factor alpha (TNFα) (human, UniProt P01375 77-233)
Sequence (P01375 77-233 limits assumed): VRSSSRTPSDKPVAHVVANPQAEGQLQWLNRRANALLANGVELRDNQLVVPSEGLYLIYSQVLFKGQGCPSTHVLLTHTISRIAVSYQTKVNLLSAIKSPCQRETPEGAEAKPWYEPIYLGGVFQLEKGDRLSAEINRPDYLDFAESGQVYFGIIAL
Test: affinity by IC50 ELISA (so named in paragraph 380)
In this section we review reported Affinity values for a set of binders.

binder	observed
MAb 874 (antibody, V domains shown, IgG1/kappa, CHO; also called H1373/L250) VH: EVQLLESGGGLIQPGGSLRLSCAASGFTVSSNYMSWVRQAPGKGLEWVSVIYSGGRTYYADSVKGRFTISRDSSKNTLYLQMNSLRAEDTAVYYCARNYAGSTYDYWGQGTLVTVSS VL: EIVLTQSPVTLSVPPGERASLSCRASQNIYTAVAWYQQKPGQAPRLLIYGASTRATGIPARFSGGGSGTDYTLTISSLESEDFAVYHCQQYHSWPLTFGGGTKLEIK	0.56 nM
MAb 1851 (antibody, V domains shown, IgG1/kappa, CHO; also called H1728/L332) VH: EVQLLESGGGLIQPGGSLRLSCAASGFTVGNNYMSWVRQAPGKGLEWVSVIYSAGSTYYADSVKGRFIISRDNSKDTVYLQMNSLRVDDTAVYYCARNYYGSTFDYWGQGTLVTVSS VL: EIVLTQSPVTLSVPPGERASLSCRASQNIYTAVAWYQQKPGQAPRLLIYGASTRATGIPARFSGGGSGTDYTLTISSLESEDFAVYHCQQWHSWPLTFGGGTKLEIK	0.26 nM
MAb 1874 (antibody, V domains shown, IgG1/kappa, CHO; also called H1725/L332) VH: EVQLLESGGGLIQPGGSLRLSCAASGFTVGNNYMSWVRQAPGKGLEWVSVIYSAGSTYYADSVKGRFIISRDNSKDTVYLQMNSLRVDDTAVYYCARNYYGSTMDYWGQGTLVTVSS VL: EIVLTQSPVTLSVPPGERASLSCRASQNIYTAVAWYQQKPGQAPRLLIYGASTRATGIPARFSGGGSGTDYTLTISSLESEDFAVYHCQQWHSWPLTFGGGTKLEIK	0.38 nM
MAb 1371 (antibody, V domains shown, IgG1/kappa, CHO; also called H1596/L332) VH: EVQLVESGGGLIQPGGSLRLSCAVSGLNVSRDYMSWVRQAPGKGLEWISVIYRGGATMYADSVKGRFTISRDTSKNTVFLQMSRLKVADTAVYYCARNYYGSTHDYWGQGTLVTVSS VL: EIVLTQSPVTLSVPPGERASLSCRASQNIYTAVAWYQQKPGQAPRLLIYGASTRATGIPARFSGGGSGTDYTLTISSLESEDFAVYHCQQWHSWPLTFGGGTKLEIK	0.2 nM

Please examine the following record next.
**Query** Fill in: Affinity of MAb 1896 (antibody, V domains shown, IgG1/kappa, CHO; also called H1685/L459) VH: EVQLVESGGGLIQPGGSLRLSCAVSGLNVSRDYMSWVRQAPGKGLEWISVIYRGGATMYADSVKGRFTISRDTSKNTVFLQMSRLKVADTAVYYCARNYYGSTLDYWGQGTLVTVSS VL: EIVLTQSPVTLSVPPGERASLSCRASQNIYTAVAWYQQKPGQAPRLLIYNASTRATGIPARFSGGGSGTDYTLTISSLESEDFAVYHCQQWHSWPLTFGGGTKLEIK is ___
**Result** 0.08 nM
